# experimental system: Gal3 (Human Galectin-3) in THP-1 cells (Homo sapiens)
# Construct: host or cells: THP-1
# assay procedure: ELISA Gal3 Degradation Assay in THP-1 Cells
# Type: cell-based
# test settings: 48 hours, culture media Gal3 by ELISA, test 1, read-out: Supernatant (IC50) test 1
pIC50: −log10 of the molar value.
property name: pIC50

[A] Cc1nc([C@@H]2O[C@H](CO)[C@H](O)[C@H](n3cc(-c4cc(F)c(Cl)c(F)c4)nn3)[C@H]2OCC(=O)N[C@H]2C[C@@H](Oc3ccc(C(=O)Nc4ccc5c(c4)CN([C@@H]4CCC(=O)NC4=O)C5=O)nc3)C2)n(-c2cc(Cl)ccc2C(F)(F)F)n1 [Example 6]
[B] Cc1nc([C@@H]2O[C@H](CO)[C@H](O)[C@H](n3cc(-c4cc(F)c(Cl)c(F)c4)nn3)[C@H]2OCC(=O)N2CC(Oc3ccc(C(=O)Nc4ccc5c(c4)CN(C4CCC(=O)NC4=O)C5=O)cc3)C2)n(-c2cc(Cl)ccc2C(F)(F)F)n1 (stereo partly shown) [Example 8]
Query block: For the pair A and B , which entry has the numerically smaller recorded pIC50? Answer by stating the label of the chosen item.
Result block: B
(B: 6.55, A: 7.41)

###

# experimental system: His-tagged recombinant human Gal-3 (hGal-3) (Homo sapiens)
# assay procedure: Gal-3 HTRF assay (His-tagged hGal-3 / B-ASF)
# test settings: 15 nM hGal-3, 15 nM B-ASF
property name: IC50 (nM)
The reply should be a number in nM, with the unit left off.

compound="Cc1nc([C@@H]2O[C@H](CO)[C@H](O)[C@H](n3cc(-c4cc(F)c(Cl)c(F)c4)nn3)[C@H]2OCC(=O)NCCOCCOCCNC(=O)c2ccc3c(c2)C(=O)N(C2CCC(=O)NC2=O)C3=O)n(-c2cc(Cl)ccc2C(F)(F)F)n1 (some centres unmarked)" experimental_system="His-tagged recombinant human Gal-3 (hGal-3) (Homo sapiens)" property_name=IC50 measured=25

Query block: Consider the compound Cc1nc([C@@H]2O[C@H](CO)[C@H](O)[C@H](n3cc(-c4cc(F)c(Cl)c(F)c4)nn3)[C@H]2OCC(=O)N[C@H]2C[C@@H](Oc3ccc(C(=O)N[C@H](C(=O)N4C[C@H](O)C[C@H]4C(=O)NCc4ccc(-c5scnc5C)cc4)C(C)(C)C)nc3)C2)n(-c2cc(Cl)ccc2C(F)(F)F)n1 . State its measured IC50.
Result block: 1010

###

# experimental system: His-tagged recombinant human Gal-3 (hGal-3) (Homo sapiens, UniProt P17931)
# Sequence (P17931 whole entry): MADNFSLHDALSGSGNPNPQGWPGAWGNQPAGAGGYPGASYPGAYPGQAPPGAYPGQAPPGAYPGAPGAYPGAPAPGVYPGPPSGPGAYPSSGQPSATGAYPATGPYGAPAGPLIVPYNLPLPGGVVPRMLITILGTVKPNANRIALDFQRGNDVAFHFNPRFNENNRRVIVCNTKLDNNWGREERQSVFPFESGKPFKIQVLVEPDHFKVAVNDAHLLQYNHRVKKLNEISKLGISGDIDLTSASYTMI
# assay procedure: Gal-3 HTRF assay (His-tagged hGal-3 / B-ASF)
# Assay type: binding
# test settings: 15 nM hGal-3, 15 nM B-ASF
property name: IC50 (nM)

Example results:
molecule="Cc1nc([C@@H]2O[C@H](CO)[C@H](O)[C@H](n3cc(-c4cc(F)c(Cl)c(F)c4)nn3)[C@H]2OCC(=O)N2CC(COc3ccc(C(=O)Nc4ccc5c(c4)CN(C4CCC(=O)N(C)C4=O)C5=O)cc3)C2)n(-c2cc(Cl)ccc2C(F)(F)F)n1 (stereo partly shown)" u=nM measured=85
molecule="Cc1nc([C@@H]2O[C@H](CO)[C@H](O)[C@H](n3cc(-c4cc(F)c(Cl)c(F)c4)nn3)[C@H]2OCC(=O)N[C@H]2C[C@@H](Oc3ccc(C(=O)Nc4cccc5c4CN(C4CCC(=O)NC4=O)C5=O)nc3)C2)n(-c2cc(Cl)ccc2C(F)(F)F)n1 (stereo partly shown)" u=nM measured=70

[I] Cc1nc([C@@H]2O[C@H](CO)[C@H](O)[C@H](n3cc(-c4cc(F)c(Cl)c(F)c4)nn3)[C@H]2OCC(=O)N2CC(COc3ccc(C(=O)Nc4ccc5c(c4)CN(C4CCC(=O)NC4=O)C5=O)nc3)C2)n(-c2cc(Cl)ccc2C(F)(F)F)n1 (stereo partly shown)
[II] Cc1nc([C@@H]2O[C@H](CO)[C@H](O)[C@H](n3cc(-c4cc(F)c(Cl)c(F)c4)nn3)[C@H]2OCC(=O)N[C@H]2C[C@H](Oc3ccc(C(=O)Nc4ccc5c(c4)CN(C4CCC(=O)NC4=O)C5=O)nc3)C2)n(-c2cc(Cl)ccc2C(F)(F)F)n1 (stereo partly shown)
Query block: Compare the recorded IC50 of I and II ; state which is larger. Respond with the label that goes with your answer.
Result block: II

###

# experimental system: hCRBN (NanoLuc-CRBN fusion construct in HEK-293 cells) (Homo sapiens, UniProt Q96SW2)
# Sequence (Q96SW2 whole entry, the tested form may be a part): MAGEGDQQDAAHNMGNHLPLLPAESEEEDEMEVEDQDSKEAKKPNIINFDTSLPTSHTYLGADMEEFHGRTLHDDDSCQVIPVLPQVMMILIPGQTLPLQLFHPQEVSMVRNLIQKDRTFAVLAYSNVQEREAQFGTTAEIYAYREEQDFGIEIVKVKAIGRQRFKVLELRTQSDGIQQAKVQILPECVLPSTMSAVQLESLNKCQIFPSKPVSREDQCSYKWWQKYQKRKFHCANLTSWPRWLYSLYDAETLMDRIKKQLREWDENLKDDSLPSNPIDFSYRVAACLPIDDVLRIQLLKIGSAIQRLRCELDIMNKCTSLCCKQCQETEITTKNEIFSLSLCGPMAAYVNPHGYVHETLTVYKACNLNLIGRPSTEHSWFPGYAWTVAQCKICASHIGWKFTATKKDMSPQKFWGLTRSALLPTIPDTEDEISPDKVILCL
# assay procedure: CRBN BRET Target Engagement
# test settings: NanoLuc-CRBN transfected HEK-293 cells, BRET with CRBN Probe
property name: IC50 (µM)

[I] Cc1nc([C@@H]2O[C@H](CO)[C@H](O)[C@H](n3cc(-c4cc(F)c(Cl)c(F)c4)nn3)[C@H]2OCC(=O)N[C@H]2C[C@@H](Oc3ccc(C(=O)Nc4ccc5c(c4)CN([C@H]4CCC(=O)NC4=O)C5=O)nc3)C2)n(-c2cc(Cl)ccc2C(F)(F)F)n1
[II] Cc1nc([C@@H]2O[C@H](CO)[C@H](O)[C@H](n3cc(-c4cc(F)c(Cl)c(F)c4)nn3)[C@H]2OCC(=O)N[C@H]2C[C@@H](Oc3ccc(C(=O)Nc4cccc5c4CN(C4CCC(=O)NC4=O)C5=O)nc3)C2)n(-c2cc(Cl)ccc2C(F)(F)F)n1 (some centres unmarked)
Query block: Parameter check: reported IC50 is higher for which label, I or II ? // respond with label for picked entry
Result block: II

###

# experimental system: His-tagged recombinant human Gal-3 (hGal-3) (Homo sapiens, UniProt P17931)
# assay procedure: Gal-3 HTRF assay (His-tagged hGal-3 / B-ASF)
# test settings: 15 nM hGal-3, 15 nM B-ASF
pIC50: −log10 of the molar value.
property name: pIC50

molecule=Cc1nc([C@@H]2O[C@H](CO)[C@H](O)[C@H](n3cc(-c4cc(F)c(Cl)c(F)c4)nn3)[C@H]2OCC(=O)N[C@H]2C[C@@H](Oc3ccc(C(=O)Nc4ccc5c(c4)CN([C@H]4CCC(=O)NC4=O)C5=O)nc3)C2)n(-c2cc(Cl)ccc2C(F)(F)F)n1 experimental_system="His-tagged recombinant human Gal-3 (hGal-3) (Homo sapiens, UniProt P17931)" property_name=pIC50 measured=7.08
molecule="Cc1nc([C@@H]2O[C@H](CO)[C@H](O)[C@H](n3cc(-c4cc(F)c(Cl)c(F)c4)nn3)[C@H]2OCC(=O)N2Cc3ccc(C(=O)Nc4ccc5c(c4)CN(C4CCC(=O)NC4=O)C5=O)cc3C2)n(-c2cc(Cl)ccc2C(F)(F)F)n1 (some centres unmarked)" experimental_system="His-tagged recombinant human Gal-3 (hGal-3) (Homo sapiens, UniProt P17931)" property_name=pIC50 measured=7.29
molecule="Cc1nc([C@@H]2O[C@H](CO)[C@H](O)[C@H](n3cc(-c4cc(F)c(Cl)c(F)c4)nn3)[C@H]2OCC(=O)N2CC3(CC(Oc4ccc(C(=O)Nc5ccc6c(c5)CN(C5CCC(=O)NC5=O)C6=O)cc4)C3)C2)n(-c2cc(Cl)ccc2C(F)(F)F)n1 (some centres unmarked)" experimental_system="His-tagged recombinant human Gal-3 (hGal-3) (Homo sapiens, UniProt P17931)" property_name=pIC50 measured=6.96
molecule="Cc1nc([C@@H]2O[C@H](CO)[C@H](O)[C@H](n3cc(-c4cc(F)c(Cl)c(F)c4)nn3)[C@H]2OCC(=O)N[C@H]2C[C@@H](Oc3ccc(C(=O)Nc4ccc5c(c4)CN(C4CCC(=O)NC4=O)C5=O)cc3)C2)n(-c2cc(Cl)ccc2C(F)(F)F)n1 (some centres unmarked)" experimental_system="His-tagged recombinant human Gal-3 (hGal-3) (Homo sapiens, UniProt P17931)" property_name=pIC50 measured=7.15
molecule="Cc1nc([C@@H]2O[C@H](CO)[C@H](O)[C@H](n3cc(-c4cc(F)c(Cl)c(F)c4)nn3)[C@H]2OCC(=O)NCCOCCOCCNC(=O)c2ccc3c(c2)C(=O)N(C2CCC(=O)N(C)C2=O)C3=O)n(-c2cc(Cl)ccc2C(F)(F)F)n1 (some centres unmarked)" experimental_system="His-tagged recombinant human Gal-3 (hGal-3) (Homo sapiens, UniProt P17931)" property_name=pIC50 measured=7.16

[1] Cc1nc([C@@H]2O[C@H](CO)[C@H](O)[C@H](n3cc(-c4cc(F)c(Cl)c(F)c4)nn3)[C@H]2OCC(=O)N[C@H]2C[C@@H](Oc3ccc(C(=O)Nc4ccc5c(c4)CN(C4CCC(=O)NC4=O)C5=O)nc3)C2)n(-c2cc(Cl)ccc2C(F)(F)F)n1 (some centres unmarked)
[2] Cc1nc([C@@H]2O[C@H](CO)[C@H](O)[C@H](n3cc(-c4cc(F)c(Cl)c(F)c4)nn3)[C@H]2OCC(=O)N2CC3(CC(COc4ccc(C(=O)Nc5ccc6c(c5)CN(C5CCC(=O)NC5=O)C6=O)cc4)C3)C2)n(-c2cc(Cl)ccc2C(F)(F)F)n1 (some centres unmarked)
Query block: Select the item with the higher value of pIC50 from the options 1 and 2 listed. Reply briefly: the label of your chosen item.
Result block: 1
(1: 7.09, 2: 6.80)
